Source: ChEMBL document CHEMBL3297708

Test: Half life in human liver microsomes
Assay type: ADME
The entries below come with measured half-life values attached.
Field: numeric (min). Do not append units.

>  <smiles.structure>
CCc1nc2ccc(Cl)cn2c1C(=O)NCc1ccc(-c2ccc(C)cc2)cc1

>  <half-life, min>
30.5

$$$$

Then this molecule:
molecule CCc1nc2ccc(Cl)cn2c1C(=O)NCc1ccc(N2CCC(c3ccc(Cl)cc3)CC2)cc1 , half-life observed: 57.9

###

The entries below come with measured half-life values attached.
Experiment: Half life in human liver microsomes
Assay type: ADME

>  <smiles.structure>
CCc1nc2cc(Cl)ccn2c1C(=O)NCc1ccc(N2CCC(c3ccc(OC(F)(F)F)cc3)CC2)cc1

>  <half-life>
> 120 min

$$$$
>  <smiles.structure>
CCc1nc2cc(Cl)ccn2c1C(=O)NCc1ccc(N2CCN(c3ccc(F)cc3)CC2)cc1

>  <half-life>
> 120 min

$$$$

compound CCc1nc2cc(Cl)ccn2c1C(=O)NCc1ccc(-c2ccc(C(=O)O)cc2)cc1 , half-life observed: > 120 min
